# Assay System: SARS-CoV-2 RBD.mmh (Spike amino acids Arg319-Phe541 with C-terminal myc-myc-6-Histidine tag) (SARS-CoV-2, UniProt P0DTC2 319-541)
pIC50: −log10 of the molar value.

Binder	pIC50
mAb14289 (antibody, V domains shown) VH: QVQLVQSGPEVKKPGASVKVSCKASGYTFTSYAISWVRQAPGQGLEWMGWISAYNGNTNYAQKLQGRVTMTTDTFTSTAYMELRSLRSDDTAVYYCAVPADHITFDYWGQGTLVTVSS VL: EIVLTQSPGTLSLSPGERATLSCRASQSVSSYLAWYQQKPGQAPRLLIHGASSRATGIPDRFSGSGSGTDFTLTISRLEPEDFAVYYCQQYGSSFLTFGGGTKVEIKR	9.42
mAb15151 (antibody, V domains shown) VH: QVQLVESGGGVVQPGRSLRLSCAASGFVFNSYGMHWVRQAPGKGLEWVAVLWYEGSKNYYADSVKGRFTISRDNSKNTLYLQMNSLRAEDTAVYYCARHGSGSFFGYYLDYWGQGTLVTVSS VL: DIQMTQSPSSLSASVGDRVTITCRASHNINDFLNWYQQKPGKAPRLLIYAASSLQSGVPSRFSGSGSGTDFTLTISSLQPEDFATYYCQESYTTPPTFGQGTKLEIKR	9.19
mAb14258 (antibody, V domains shown) VH: QLQLQESGPGLVKPSETLSLICTGSGDSISSSHYYWGWIRQPPGKGLEWIGSTYFSGSTYYNPSLKSRVSISVDTSKNQVSLKLISVTAADTAVYYCAREMGATLGDYWGPGTLVTVSS VL: QSVLTQPPSASGTPGQRVTISCSGSSSNIGNNYVYWYQQFPGTTPRLLIYRNNERPSGVPDRFSGSKSGTSASLVISGLRSEDEADYYCAAWDDSLSAHYVFGTGTKVTVLG	9.92
mAb14284 (antibody, V domains shown) VH: QITLKESGPTLVKPTQTLTLTCTFSGFSFSTSGVGVGWIRQPPGKTLEWLALIYWDDDKRYSPSLKSRLTITKDTSKNQVVLTMTNMDPVDTATYFCAHHGIPTIFGYWGQGALVTVSS VL: QSALTQPASVSGSPGQSITISCTGTSSDLGVFNYVSWYQQHPGKAPKLMIYEVTNRPSGVSNRFSGSKSGNTASLTISGLQAEDEADYYCSSYTTSSTVFGGGTKLTVLG	9.44
mAb14234 (antibody, V domains shown) VH: QVQLVESGGGVVQPGRSLRLSCAASGFTFSSYGIHWVRQAPGKGLEWVAIIWYDGSEKYYADSVKGRFTISRDNSKNTLFLQMNSLEAEDTAVYYCARGPDLLTGYYNYFYYGMDVWGQGTTVTVSS VL: QSVLTQPPSVSGAPGQRVTISCTGSSSNIGIGYDVHWYQQLPGTVPKLLIYGNTNRPSGVPDRFSGSKSGTSASLAITGLQAEDEADYYCQSYDSSLSSYVFGTGTKVTVLG	8.34
mAb14294 (antibody, V domains shown) VH: EVQLVESGGGLVQPGGSLRLSCAASGFTFSNHWMDWVRQAPGKGLVWVSRINSDGSSTDYADSVRGRFTMSRDNAKNTLYLQMSSLRAEDTAVYYCAREGMIFGAVIIPGWYFDLWGRGALVTVSS VL: EIVLTQSPGTLSLSPGERATLSCRASQSVSSSQLAWYQQKPGQAPRLLIYGASSRATGIPDRFSGSGSGTDFTLTISRLEPEDFAVYYCQQYDSFGQGTKLEIKR	9.61
mAb13458 (antibody, V domains shown) VH: EVQLVESGGGLVQPGRSLRLSCAASGFTFDDYAMHWVRQAPGKGLEWVSGISWNSGSIGYADSVKGRFTISRDNAKNSLYLQMNSLRAEDTALYYCAKDIGITTPYWGQGTLVTVSS VL: AIQMTQSPSSLSASVGDRVTITCRASQDIRNDLGWYQQKPGKAPKLLIYSASSLQTGVPSRFSGSGSGTDFTLTISSLHPEDFATYYCLQDYWYTWTFGQGTKVEIKR	9.06
mAb14286 (antibody, V domains shown) VH: QVQLVQSGAEVKKPGASVKVSCKASGYTFTDYFIHWVRQAPGQGLEWMGWINPTSGGTNYAQKFRGRVTMTRDTSISTAYVELSRLRSDDTALYYCARDLPFYSDTKQFDYWGQGTLVTVSS VL: QSALTQPASVSGYPGQSITISCTGTSSDVGGYNYVSWYQQHPGKAPKLMIFDVSNRPSGVSNRFSGSKSGNTASLTFSGLQAEDEADYYCSSYTSSSTLVFGGGTKLTVLG	9.19
mAb14283 (antibody, V domains shown) VH: QVQLQESGPGLVKPSGTLSLTCDVSGGSISSNNWWSWVRQRPGKGLQWIGEIYHNENTNYNPSLKSRVIMSIDKSKNQFSLKLTSVTAADTAVYYCARGDVLDWFDPWGQGTLVTVSS VL: QSALTQPASVSGSPGQSTTISCTGTSSDVGGYNYVSWYQQYPGKAPKLMIYDVTNRPSGVSHRFSGSKSGNTASLTISGLQAEDEADYYCSSYTSSSTVIFGGGTKLTVLG	9.43
mAb14232 (antibody, V domains shown) VH: QITLKESGPTLVKPTQTLTLTCTFSGFSLSASGVGVGWIRQPPGKALEWLALIYWDDDKRYSPSLKSRLTITKDTSKNQVVLTMTNMDPVDTATYYCAQHKVATIFDYWGQGTLVTVSS VL: QSALTQPPSASGSPGQSVTISCTATSSDVGNYNYVSWYQQHPGKAPKLMIYEVTKRPSGVPDRFSGSKSGNTASLTVSGLQAEDEADYYCSSYAGSWGVFGGGTKLTVLG	7.74
